System: HT29
procedure_text: Cell toxicity panel, viability (luminescence)
Assay type: cell-based, human
experimental_conditions: Readout: Luminescence; read-out: IC50 Viability Cells, Cell line: HT29
pIC50: −log10 of the molar value.
assay_endpoint: pIC50

Consider OB(O)c1cc(Br)cc(N2CCOCC2)c1 [Compound 3.1] . Its measured pIC50 is < 4.00

====

Answer each item with its documented Ki.
target_under_test: wildtype LcαE7 (Lucilia cuprina, UniProt Q25252)
Sequence (Q25252 1-570): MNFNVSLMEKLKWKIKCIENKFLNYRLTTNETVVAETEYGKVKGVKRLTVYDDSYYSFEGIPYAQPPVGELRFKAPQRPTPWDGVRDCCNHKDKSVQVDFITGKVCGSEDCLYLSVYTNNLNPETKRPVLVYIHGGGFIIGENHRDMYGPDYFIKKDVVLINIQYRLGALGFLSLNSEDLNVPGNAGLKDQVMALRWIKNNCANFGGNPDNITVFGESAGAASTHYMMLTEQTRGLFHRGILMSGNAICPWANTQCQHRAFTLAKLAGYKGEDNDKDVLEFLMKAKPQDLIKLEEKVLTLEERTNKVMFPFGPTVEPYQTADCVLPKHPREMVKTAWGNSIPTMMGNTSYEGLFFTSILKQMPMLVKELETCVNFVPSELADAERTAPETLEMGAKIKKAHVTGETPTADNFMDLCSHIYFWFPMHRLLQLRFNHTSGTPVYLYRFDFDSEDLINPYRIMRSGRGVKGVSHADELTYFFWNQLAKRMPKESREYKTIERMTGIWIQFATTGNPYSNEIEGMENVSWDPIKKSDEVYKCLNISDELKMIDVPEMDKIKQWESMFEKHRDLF
procedure_text: Enzyme inhibition assay with 4-nitrophenol butyrate, wild-type
Format: biochemical
Experimental: Wild-type LcαE7 was heterologously expressed in Escherichia coli and purified using metal ion affinity and size exclusion chromatography. The potency of the boronic acids was determined by enzymatic assays of recombinant LcαE7 with the model carboxylester substrate 4-nitrophenol butyrate. Inhibition of wild-type αE7 and the Gly137Asp αE7 variant was determined by a competition assay between the native-substrate analogue 4-nitrophenol butyrate (Sigma) and the boronic acid compounds. […]
Just the number please, in nM, no unit attached.

// field: Ki; key: "OB(O)c1cc(Br)cc(OC(F)(F)F)c1" ; value = 2

Kindly note the recorded Ki for "Cc1ccc(B(O)O)cc1OCc1ccccc1" , which is 2.9

Record "OB(O)c1ccc2ccccc2c1" , field Ki: 7.2

For reference, reported Ki for "CC(C)Oc1cc(Br)cc(B(O)O)c1" stands at 0.3

Field Ki (entry "Cc1ccc(B(O)O)cc1Br" ) reads 12

# molecule "OB(O)c1ccc(OCc2ccccc2F)c(Cl)c1" ; its Ki = 11

Quick note, Ki for "OB(O)c1cc(Br)cc(N2CCCCC2)c1" landed at 0.47

Record summary for "CC(C)(C)Oc1ccc(B(O)O)cc1Br" : reported Ki = 12

Ki in this record for "OB(O)c1cc(Br)cc(N2CCCC2)c1" : 0.25

Sample OB(O)c1ccccc1 [PBA, phenylboronic acid, reference compound] ; Ki observed: 210

# molecule "O=C(c1cc(Cl)cc(B(O)O)c1)N1CCOCC1" ; its Ki = 5.8

For this molecule ( "OB(O)c1cc(Br)cc(Oc2ccccc2)c1" ), measured Ki is 0.44

The value of Ki measured for the molecule "OB(O)c1cc(Br)cc2c1OCC2" turned out to be 3.4

Reported Ki of "OB(O)c1cc(Cl)cc(N2CCCC2)c1" : 0.35

Ki measured on "OB(O)c1cc(Br)c2ccccc2c1F" = 6

The molecule "CN1CCN(c2cc(Br)cc(B(O)O)c2)CC1" showed Ki equal to 3.8

// "OB(O)c1cc(Br)cc(OCc2ccccc2)c1" : Ki value = 0.44
